# Tested on: SK-N-SH human neuroblastoma cells
# protocol description: Serum Deprivation/JC-1 Mitochondrial Membrane Potential (MMP) Assay
# Format: cell-based
# recorded conditions: 18 h, percent maximal JC-1 ratio normalized to the peak value for 10 μM dimebolin, read-out: JC-1 max %
For each entry below, report its Emax value.
Numbers only, in %.

Examples with answers:
In [3]: df
Out[3]:
                                   molecule  observed_property  measurement_unit  readout_value
0     Cc1ccc(CCc2cccc3c4c([nH]c23)CCNC4)cn1               Emax                 %             88
1  Cc1ccc(/C=C/c2cccc3c4c([nH]c23)CCNC4)cn1               Emax                 %            132
2  CCOC(=O)N1CCc2[nH]c3c(/C=C/c4ccc(C)nc4)cccc3c2C1               Emax                 %            146

// each listed molecule needs a value for Emax
1. Cc1ccc(/C=C/c2cccc3c2N[C@@H]2CCN(C)C[C@H]32)cn1 (relative stereo)
2. Cc1ccc(CCc2cccc3c4c([nH]c23)CCN(C)C4)cn1
3. CC(=O)N1CCc2[nH]c3c(/C=C/c4ccc(C)nc4)cccc3c2C1
4. CN1CCc2[nH]c3c(C#Cc4ccncc4)cccc3c2C1
5. Cc1ccc(C#Cc2cccc3c4c([nH]c23)CCN(C)C4)cn1
6. CCNC(=O)N1CCc2[nH]c3c(/C=C/c4ccc(C)nc4)cccc3c2C1
7. Cc1ccc(/C=C/c2cccc3c4c([nH]c23)CCN(C)C4)cn1
8. CN1CCc2[nH]c3c(C#Cc4cccnc4)cccc3c2C1

1: 161; 2: 115; 3: 155; 4: 103; 5: 176; 6: 186; 7: 126; 8: 199
